Study System: human heart chymase (Homo sapiens, UniProt P23946)
Sequence (P23946 22-247): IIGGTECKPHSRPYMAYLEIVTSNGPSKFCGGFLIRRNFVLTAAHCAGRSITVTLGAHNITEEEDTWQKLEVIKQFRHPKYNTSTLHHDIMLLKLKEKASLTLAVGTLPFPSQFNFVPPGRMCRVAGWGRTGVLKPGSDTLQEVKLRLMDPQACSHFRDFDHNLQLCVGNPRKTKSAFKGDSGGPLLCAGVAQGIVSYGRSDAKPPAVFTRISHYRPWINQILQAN
Protocol Notes: biochemical
Assay Setup: Chymase inhibitive activity (IC50), Ang I substrate, 37° C., 30 min, pH 7.5
pIC50: −log10 of the molar value.
Property Measured: pIC50

# count of solved cases: 5
Mol Smiles	Study System	pIC50
O=c1[nH]c2cc(Cl)ccc2c(=O)n1S(=O)(=O)c1ccccc1	human heart chymase (Homo sapiens, UniProt P23946)	6.14
CC[n+]1cccc(NC(=O)Cn2c(=O)n(S(=O)(=O)c3ccc(Cl)cc3)c(=O)c3ccc(Cl)cc32)c1	human heart chymase (Homo sapiens, UniProt P23946)	7.51
O=c1[nH]c2cc(Cl)ccc2c(=O)n1S(=O)(=O)c1ccc(C(F)(F)F)cc1	human heart chymase (Homo sapiens, UniProt P23946)	6.34
O=c1[nH]c2cc(F)ccc2c(=O)n1S(=O)(=O)c1ccc(Cl)cc1	human heart chymase (Homo sapiens, UniProt P23946)	5.77
O=C(O)Cn1c(=O)n(S(=O)(=O)c2ccc(Cl)cc2)c(=O)c2ccc(Cl)cc21	human heart chymase (Homo sapiens, UniProt P23946)	5.48

P. CC[n+]1cccc(NC(=O)Cn2c(=O)n(S(=O)(=O)c3ccc(OC)cc3)c(=O)c3ccc(Cl)cc32)c1
Q. O=C(O)c1ccc(S(=O)(=O)n2c(=O)[nH]c3cc(Cl)ccc3c2=O)cc1
R. O=C(Cn1c(=O)n(S(=O)(=O)c2ccc(Cl)cc2)c(=O)c2ccc(Cl)cc21)Nc1ccccc1
Ask: Put the items in order so that reported pIC50 rises from first to last. Use the labels to give the ranking in the order requested.
Reply: Q, P, R

* * *

Study System: human heart chymase (Homo sapiens, UniProt P23946)
Protocol Notes: biochemical
Assay Setup: Chymase inhibitive activity (IC50), Ang I substrate, 37° C., 30 min, pH 7.5
pIC50: −log10 of the molar value.
Property Measured: pIC50

Mol Smiles	pIC50
O=C(Cn1c(=O)n(S(=O)(=O)c2ccc(Cl)cc2)c(=O)c2ccc(Cl)cc21)Nc1ccccc1O	6.51
O=c1[nH]c2cc(Cl)ccc2c(=O)n1S(=O)(=O)c1ccc(OCCBr)cc1	5.82
O=C(Cn1c(=O)n(S(=O)(=O)c2ccc(Cl)cc2)c(=O)c2ccc(Cl)cc21)Nc1ccncn1	6.72
Nc1ccccc1Cn1c(=O)n(S(=O)(=O)c2ccc(Cl)cc2)c(=O)c2ccc(Cl)cc21	6.74
N#Cc1cccc(Cn2c(=O)n(S(=O)(=O)c3ccc(Cl)cc3)c(=O)c3ccc(Cl)cc32)c1	6.80
O=c1c2ccc(Cl)cc2n(Cc2cccnc2)c(=O)n1S(=O)(=O)c1ccc(Cl)cc1	7.34

I. O=C(Nc1cccnc1)c1cccc(Cn2c(=O)n(S(=O)(=O)c3ccc(Cl)cc3)c(=O)c3ccc(Cl)cc32)c1
II. Cc1cc2[nH]c(=O)n(S(=O)(=O)c3ccc(Cl)cc3)c(=O)c2cc1C
Ask: Which has the higher pIC50, I or II ? Returns: label corresponding to the selected item.
Reply: I

* * *

Study System: human heart chymase (Homo sapiens, UniProt P23946)
Protocol Notes: biochemical
Assay Setup: Chymase inhibitive activity (IC50), Ang I substrate, 37° C., 30 min, pH 7.5
pIC50: −log10 of the molar value.
Property Measured: pIC50

# count of solved cases: 3
Compound	pIC50
COC(=O)c1ccc(S(=O)(=O)n2c(=O)[nH]c3cc(Cl)ccc3c2=O)cc1 [Example 19]	6.70
O=c1[nH]c2cc(O)ccc2c(=O)n1S(=O)(=O)c1ccc(Cl)cc1 [Example 151]	5.55
O=c1c2ccc(Cl)cc2n(COCc2ccccc2)c(=O)n1S(=O)(=O)c1ccc(Cl)cc1 [Example 109]	6.62

P. O=c1[nH]c2ccc(F)cc2c(=O)n1S(=O)(=O)c1ccc(Cl)cc1 [Example 33]
Q. O=C(O)C[n+]1cccc(NC(=O)Cn2c(=O)n(S(=O)(=O)c3ccc(Cl)cc3)c(=O)c3ccc(Cl)cc32)c1 [Example 84]
R. O=C(O)CNC(=O)c1cccc(Cn2c(=O)n(S(=O)(=O)c3ccc(Cl)cc3)c(=O)c3ccc(Cl)cc32)c1 [Example 70]
S. N[C@@H](CC(=O)NCc1cccc(NC(=O)Cn2c(=O)n(S(=O)(=O)c3ccc(Cl)cc3)c(=O)c3ccc(Cl)cc32)c1)C(=O)O [Example 52]
Ask: Put the items in order so that reported pIC50 rises from first to last. Use the labels to give the ranking in the order requested.
Reply: P, R, S, Q

* * *

Study System: human neutrophil derived cathepsin G (Homo sapiens)
Sequence (P08311 21-244 limits assumed): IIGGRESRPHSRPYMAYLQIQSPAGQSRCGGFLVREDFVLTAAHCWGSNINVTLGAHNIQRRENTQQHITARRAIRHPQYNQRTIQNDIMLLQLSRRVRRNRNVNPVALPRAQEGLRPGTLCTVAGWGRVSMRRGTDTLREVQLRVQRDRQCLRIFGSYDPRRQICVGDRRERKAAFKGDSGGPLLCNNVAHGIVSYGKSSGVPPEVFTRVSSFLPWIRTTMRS
Protocol Notes: Measurement of cathepsin G inhibitive activity (conversion of Ang I to Ang II, HPLC)
Assay Setup: Ang I substrate, 37° C., 30 min, pH 7.5
pIC50: −log10 of the molar value.
Property Measured: pIC50

# count of solved cases: 4
Mol Smiles	Property Measured	Measured Value
COc1cccc2c(=O)n(S(=O)(=O)c3ccc(Cl)cc3)c(=O)[nH]c12	pIC50	5.49
O=C(O)c1cccc(S(=O)(=O)n2c(=O)[nH]c3cc(Cl)ccc3c2=O)c1	pIC50	6.10
Cc1cc2[nH]c(=O)n(S(=O)(=O)c3ccc(Cl)cc3)c(=O)c2cc1C	pIC50	4.43
C=CCOC(=O)c1ccc(S(=O)(=O)n2c(=O)[nH]c3cc(Cl)ccc3c2=O)cc1	pIC50	6.47

A. O=c1[nH]c2cc(Cl)ccc2c(=O)n1S(=O)(=O)c1ccc([N+](=O)[O-])cc1
B. O=c1[nH]c2ccccc2c(=O)n1S(=O)(=O)c1ccc(Cl)cc1
C. O=C(O)c1ccc(S(=O)(=O)n2c(=O)[nH]c3cc(Cl)ccc3c2=O)cc1
D. Cn1c(=O)n(S(=O)(=O)c2ccc(Cl)cc2)c(=O)c2ccc(Cl)cc21
E. O=c1[nH]c2cc(F)ccc2c(=O)n1S(=O)(=O)c1ccc(Cl)cc1
Ask: Rank the 5 compounds: largest pIC50 first, smallest last. Use the labels to give the ranking in the order requested.
Reply: A, C, E, B, D
(A: 7.47, C: 6.24, E: 5.96, B: 5.42, D: 4.80)

A. O=c1[nH]c2cc(Cl)ccc2c(=O)n1S(=O)(=O)c1ccccc1
B. Cc1ccc(S(=O)(=O)n2c(=O)[nH]c3cc(Cl)ccc3c2=O)cc1
Ask: Which has the higher pIC50, A or B ? Returns: label corresponding to the selected item.
Reply: A

A. Cc1ccc(S(=O)(=O)n2c(=O)[nH]c3cc(Cl)ccc3c2=O)cc1C
B. O=C(O)Cn1c(=O)n(S(=O)(=O)c2ccc(Cl)cc2)c(=O)c2ccc(Cl)cc21
Ask: Which has the higher pIC50, A or B ? Returns: label corresponding to the selected item.
Reply: A

a. Cc1ccc2[nH]c(=O)n(S(=O)(=O)c3ccc(Cl)cc3)c(=O)c2c1
b. O=c1[nH]c2ccc(F)cc2c(=O)n1S(=O)(=O)c1ccc(Cl)cc1
Ask: I'm curious, which of these has a smaller pIC50 number: a or b ? Returns: label corresponding to the selected item.
Reply: a
(a: 4.19, b: 5.44)

* * *

Study System: human heart chymase (Homo sapiens)
Assay Setup: read-out: Chymase inhibitive activity (IC50), Ang I substrate, 37° C., 30 min, pH 7.5
pIC50: −log10 of the molar value.
Property Measured: pIC50

Mol Smiles	Study System	pIC50
Nc1ncc(NC(=O)Cn2c(=O)n(S(=O)(=O)c3ccc(Cl)cc3)c(=O)c3ccc(Cl)cc32)cn1	human heart chymase (Homo sapiens)	6.89
O=C(Cn1c(=O)n(S(=O)(=O)c2ccc(Cl)cc2)c(=O)c2ccc(Cl)cc21)Nc1cc[nH]c(=O)n1	human heart chymase (Homo sapiens)	6.70

* * *

pIC50: −log10 of the molar value.
Reported pIC50, bovine pancreatic α-chymotrypsin (Bos taurus).
Property Measured: pIC50

# count of solved cases: 2
Mol Smiles	pIC50
O=c1[nH]c2cc(Cl)ccc2c(=O)n1S(=O)(=O)c1ccc(Cl)cc1	5.82
O=c1[nH]c2cc(F)ccc2c(=O)n1S(=O)(=O)c1ccc(Cl)cc1	5.24

1. O=c1[nH]c2cc(Cl)ccc2c(=O)n1S(=O)(=O)c1ccc([N+](=O)[O-])cc1
2. Cc1cc2[nH]c(=O)n(S(=O)(=O)c3ccc(Cl)cc3)c(=O)c2cc1C
3. C=CCOC(=O)c1ccc(S(=O)(=O)n2c(=O)[nH]c3cc(Cl)ccc3c2=O)cc1
4. O=c1[nH]c2ccc(F)cc2c(=O)n1S(=O)(=O)c1ccc(Cl)cc1
Ask: Rank the 4 compounds: largest pIC50 first, smallest last. Use the labels to give the ranking in the order requested.
Reply: 1, 3, 4, 2

* * *

Protocol Notes: in vivo
Assay Setup: mouse, po
# key: entry, value: LD50 at 24 h

Mol Smiles	LD50 at 24 h
Cc1cccc2[nH]c(=O)n(S(=O)(=O)c3ccc(Cl)cc3)c(=O)c12	≥ 1000 mg/kg

Ask: Give the reported LD50 at 24 h for this molecule. O=c1[nH]c2cc(Cl)ccc2c(=O)n1S(=O)(=O)c1ccc(Cl)cc1
Reply: ≥ 1000 mg/kg
